The values you see were collected from ChEMBL document CHEMBL1153536.

Experiment: Half life in Sprague-Dawley rat at 2 mg/kg, iv after 6 to 24 hrs
Assay type: ADME, organism-based
Set-up: dose 2 mg/kg, route intravenous
Details: in vivo
Recorded Endpoint: half-life (h)
Give just the numeric value; h need not be written.

Query (molecule): CC(C)(C)Sc1c(CC(C)(C)C(=O)O)n(Cc2ccc(-c3cccnc3)cc2)c2ccc(OCc3ccccn3)cc12 ; field requested: half-life
7.6

###

Experiment: Half life in Sprague-Dawley rat at 10 mg/kg, po
Type: ADME, organism-based
Design: dose 10 mg/kg, route oral
Details: in vivo
Recorded Endpoint: half-life
Hi, when you answer, please include the unit after the number. Thanks!

Which half-life reading was recorded for the compound COc1ccc(-c2ccc(Cn3c(CC(C)(C)C(=O)O)c(SC(C)(C)C)c4cc(OCc5ccccn5)ccc43)cc2)nc1 ?
1.9 h
